Test system: SARS-CoV-2 replicon
TEST NAME: microbe, parasite or virus in culture
Assay type: cell-based
MEASUREMENT PARAMETERS: Severe acute respiratory syndrome coronavirus 2, HEK-293T, 30 h, read-out: EC50, SARS-CoV-2 replicon assay

MOLECULE	TARGET UNDER TEST	EC50
CC(C)C[C@H](NC(=O)OC1CC2(CCN(C(=O)OC(C)(C)C)CC2)C1)C(=O)N[C@H](C=O)C[C@H]1CCNC1=O [Compound 7b]	SARS-CoV-2 replicon	90 nM
CC(C)C[C@H](NC(=O)OC1CC2(CCN(C(=O)OC(C)(C)C)CC2)C1)C(=O)N[C@@H](C[C@H]1CCNC1=O)C(O)S(=O)(=O)O (stereo partly shown) [Compound 7c]	SARS-CoV-2 replicon	80 nM
CC(C)C[C@H](NC(=O)OCC1CN(C(=O)OC(C)(C)C)C1)C(=O)N[C@H](C=O)C[C@H]1CCNC1=O [Compound 14b]	SARS-CoV-2 replicon	380 nM
CC(C)C[C@H](NC(=O)OCC1CN(C(=O)OC(C)(C)C)C1)C(=O)N[C@@H](C[C@H]1CCNC1=O)C(O)S(=O)(=O)O (stereo partly shown) [Compound 14c]	SARS-CoV-2 replicon	430 nM
